assay: Plasma protein binding in monkey incubated for 6 hrs by LC-MS/MS analysis; format: ADME, cell-free, Macaca mulatta; settings: rhesus monkey, read-out: PPB (converted)
observedProperty: fraction unbound at 6 h
// keep it numeric: no unit symbol after the value

As a guide, the following entries are already answered.
O=C1O[C@@H](CO)CN1c1ccc(-c2ccc(/C=N/N3CCOCC3)nc2)c(F)c1    0.215
CC(=O)NC[C@H]1CN(c2ccc(N3CCOCC3)c(F)c2)C(=O)O1 [LINEZOLID]    0.745
CC(C)N/N=C/c1ccc(-c2ccc(N3C[C@H](CO)OC3=O)cc2F)cn1    0.115
O=C1O[C@@H](CO)CN1c1ccc(-c2ccc(/C=N/N3CCS(=O)(=O)CC3)nc2)c(F)c1    0.284

Consider now this further compound.
The compound listed as O=C1O[C@@H](CO)CN1c1ccc(-c2ccc(/C=N/N3CCCCC3)nc2)c(F)c1 shows fraction unbound at 6 h equal to 0.028

----------
test: Solubility of compound at pH 2; type: physicochemical; conditions: buffer
observedProperty: solubility (µM)
Give your result in µM as a bare value.

Noted for CC(=O)NC[C@H]1CN(c2ccc(-c3ccc(/C=N/N4CCS(=O)(=O)CC4)nc3)c(F)c2)C(=O)O1 : its solubility reads 70.4

----------
experiment: Plasma protein binding in dog incubated for 6 hrs by LC-MS/MS analysis; assay type: ADME, cell-free, Canis lupus familiaris; conditions: read-out: PPB (converted)
# maps each entry to its fraction unbound at 6 h
# respond with the number and nothing more

Here is how some molecules turned out for fraction unbound at 6 h.
O=C1O[C@@H](CO)CN1c1ccc(-c2ccc(/C=N/N3CCCCC3)nc2)c(F)c1    0.017
CC(C)N/N=C/c1ccc(-c2ccc(N3C[C@H](CO)OC3=O)cc2F)cn1    0.074
O=C1O[C@@H](CO)CN1c1ccc(-c2ccc(/C=N/N3CCS(=O)(=O)CC3)nc2)c(F)c1    0.275

Kindly note the recorded fraction unbound at 6 h for O=C1O[C@@H](CO)CN1c1ccc(-c2ccc(/C=N/N3CCOCC3)nc2)c(F)c1 , which is 0.169

Note to self: fraction unbound at 6 h recorded for CC(=O)NC[C@H]1CN(c2ccc(N3CCOCC3)c(F)c2)C(=O)O1 was 0.829

----------
test: Microsomal stability in rat liver microsomes assessed as parent compound remaining pretreated with compound upto 60 mins followed by NADPH addition and measured after 60 mins by LC/MS analysis; type: ADME, Microsome; conditions: liver microsomes, time < 120 min, read-out: Stability
observedProperty: remaining at 2 h (%)
Number only, in %; omit the unit.

Example entries begin here.
O=C1O[C@@H](CO)CN1c1ccc(-c2ccc(/C=N/N3CCOCC3)nc2)c(F)c1    93.4
CC(=O)NC[C@H]1CN(c2ccc(N3CCOCC3)c(F)c2)C(=O)O1    93.9
O=C1O[C@@H](CO)CN1c1ccc(-c2ccc(/C=N/N3CCCCC3)nc2)c(F)c1    63.3

Shift focus to the following entry.
Given item O=C1O[C@@H](CO)CN1c1ccc(-c2ccc(/C=N/N3CCS(=O)(=O)CC3)nc2)c(F)c1 , the value recorded as its remaining at 2 h is 92.8

----------
Listing of recorded fraction unbound at 6 h by entry.
test: Plasma protein binding in rat incubated for 6 hrs by LC-MS/MS analysis; format: ADME, cell-free; settings: read-out: PPB (converted)

CC(C)N/N=C/c1ccc(-c2ccc(N3C[C@H](CO)OC3=O)cc2F)cn1    0.018
CC(=O)NC[C@H]1CN(c2ccc(N3CCOCC3)c(F)c2)C(=O)O1    0.639
O=C1O[C@@H](CO)CN1c1ccc(-c2ccc(/C=N/N3CCCCC3)nc2)c(F)c1    0.006
O=C1O[C@@H](CO)CN1c1ccc(-c2ccc(/C=N/N3CCOCC3)nc2)c(F)c1    0.041

Next item in the queue.
For record O=C1O[C@@H](CO)CN1c1ccc(-c2ccc(/C=N/N3CCS(=O)(=O)CC3)nc2)c(F)c1 the listed fraction unbound at 6 h is 0.096
